Origin of measurements: the supplement of paper PMC10567573

B1: CDC25A (parent)
chain: KKFRTKSRTWAGEKSKREMYSRLK

variants of: B1; test: protein stability index of a GFP-peptide fusion (GPS, HEK-293T) (PSI 1-6); higher = more stable; conditions: c terminus: a fixed tail appended;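 note: lentivirally expressed fusions sorted by FACS into six bins by GFP to DsRed ratio, PSI derived from sequencing read proportions per bin multiplied by bin number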
Recorded protein stability index values for a group of variants are listed next.
Reply briefly: the number, and no unit.

What protein stability index value was documented for this variant, "F3R" ?
3.51

What protein stability index value was documented for this variant, "W10G" ?
3.92

What protein stability index value was documented for this variant, "K24E" ?
3.27
